test system: PPARg DBDmut IVT, anti-PPARg (DBD mutation: PPARg1 K132A/R137A, NR concentration 270 nM); assay: PBM binding z-score (relative to random genomic background probes); higher = stronger binding; sequences stand for … in GC…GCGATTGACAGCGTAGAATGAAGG
Criterion: PBM binding z-score meeting or surpassing -0.2. Met: True. Not met: False.

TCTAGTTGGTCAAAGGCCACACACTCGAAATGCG : True
ACTTACGGGTCAAGGAGGTTATAGCACGCGTATA : True
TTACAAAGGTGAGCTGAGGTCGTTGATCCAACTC : False
ACTAGAAGGCCAAGGGTCACTCAAGATTAGTCCG : True
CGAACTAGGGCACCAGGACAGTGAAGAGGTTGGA : True
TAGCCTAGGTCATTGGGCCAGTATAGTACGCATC : True

====

test system: RARb homodimer (NR concentration 270 nM); test: PBM binding z-score (relative to random genomic background probes); higher = stronger binding; sequences stand for … in GC…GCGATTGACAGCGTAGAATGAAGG
Criterion: PBM binding z-score meeting or surpassing 3. Met: Y. Not met: N.

GATACAGGGTGAAGGCCAGAGTACGCGTATTGAT : N
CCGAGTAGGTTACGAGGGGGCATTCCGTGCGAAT : N
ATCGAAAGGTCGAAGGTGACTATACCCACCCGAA : N
CTATTTAGGTTAAGGGGGTCATTCAGTTTGAAAG : Y
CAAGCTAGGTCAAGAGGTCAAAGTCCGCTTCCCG : Y
CGAACCAGGTCACCAGGACAGTGAAGAGGTTGGA : Y
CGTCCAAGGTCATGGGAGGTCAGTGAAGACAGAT : Y
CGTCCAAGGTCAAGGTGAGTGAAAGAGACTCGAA : Y
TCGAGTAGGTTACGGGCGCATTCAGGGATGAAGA : N
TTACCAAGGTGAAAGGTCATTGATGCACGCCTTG : Y
CGAACTAGGTCAAAGGACGGTGAAAGGCGACGTA : N
GATACAGGGTCAACTAGAGGCCAGAGTATGGAAA : Y
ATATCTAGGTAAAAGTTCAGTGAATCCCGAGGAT : N
ATATGTAGGTTAGGGACATTCAGAAAGTAGGGAA : N
TCATATAGGTAAAAGGTCAAAGTCGGTGTGGTAA : Y
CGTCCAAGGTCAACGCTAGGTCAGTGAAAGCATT : Y
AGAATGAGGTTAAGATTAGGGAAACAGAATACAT : N
CCGACTGGGGCAAAGGTTACCACACTCAGTACGA : N
CGAACTATGTCACCAGGACAGTGAAGAGGTTGGA : N
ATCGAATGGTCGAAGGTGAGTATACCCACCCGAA : N
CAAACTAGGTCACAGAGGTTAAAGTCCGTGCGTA : Y
CCTACTGTGCCATTCAGAGGTCATTGATCATATG : Y
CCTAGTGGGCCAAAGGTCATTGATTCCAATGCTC : Y
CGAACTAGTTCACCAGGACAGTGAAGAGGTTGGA : N
AGTGAAAGTTCAGGACGAGGTAACGTAAAGCACG : Y
TTACAAAGGTGAAAGGTCGTTGATGCACGCCTTG : Y
CCAAGTAGGTTACGAGGGGGCATTCAGTGCGAAT : N
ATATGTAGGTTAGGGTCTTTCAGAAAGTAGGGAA : N
CCGAGTAGGTTACGAGGGGGCATTCAGTGCGAAT : N
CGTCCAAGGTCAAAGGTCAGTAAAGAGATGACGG : Y
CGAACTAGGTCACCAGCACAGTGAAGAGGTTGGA : Y
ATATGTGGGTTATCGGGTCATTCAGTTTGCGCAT : Y
AGAATGAGGTTACACGTAGATCAGGGAAGAAAGT : N
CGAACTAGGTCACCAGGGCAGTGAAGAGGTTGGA : Y
CGAACTAGGTCAGAACAGGACAGTTAAGGATGAT : N
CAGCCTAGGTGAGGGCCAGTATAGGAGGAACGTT : N
ACTTGGAGGACAAAGGTCAGAGCTACGCCAGTGA : Y
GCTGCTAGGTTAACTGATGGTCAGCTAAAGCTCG : N
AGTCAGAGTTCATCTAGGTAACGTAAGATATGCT : Y
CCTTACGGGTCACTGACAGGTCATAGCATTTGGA : Y
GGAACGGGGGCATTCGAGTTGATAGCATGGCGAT : N
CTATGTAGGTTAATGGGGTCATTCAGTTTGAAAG : Y
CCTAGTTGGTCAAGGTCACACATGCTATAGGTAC : Y
CAAACTAGGTCACGAAAGGTCAAAATCGAATGAC : Y
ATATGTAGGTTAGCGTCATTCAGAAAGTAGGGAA : N
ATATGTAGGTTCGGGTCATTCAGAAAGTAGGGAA : N
AGTCAAAGTTCAGGACGAGGTCACGTAAAGCACG : Y
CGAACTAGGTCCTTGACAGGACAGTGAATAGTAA : N

====

tested on: LXRb homodimer (NR concentration 270 nM); assay: PBM binding z-score (relative to random genomic background probes); higher = stronger binding; sequences stand for … in GC…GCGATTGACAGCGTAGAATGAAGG
In this section, each of the sequences is paired with its reported PBM binding z-score.
Measured quantity: PBM binding z-score

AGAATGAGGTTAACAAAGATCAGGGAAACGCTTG : -0.171
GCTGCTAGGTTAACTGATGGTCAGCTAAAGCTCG : -0.9
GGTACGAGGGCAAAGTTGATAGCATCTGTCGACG : -0.42
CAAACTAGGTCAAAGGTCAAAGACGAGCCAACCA : 2.82
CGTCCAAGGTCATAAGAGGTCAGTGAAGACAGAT : 2.11
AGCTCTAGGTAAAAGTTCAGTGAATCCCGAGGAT : -0.253
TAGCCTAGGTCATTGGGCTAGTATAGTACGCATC : -0.386
ATATGTAGGTTACCGGGTCATTCAGTTTGCGCAT : 0.869
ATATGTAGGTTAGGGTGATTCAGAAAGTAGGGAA : 1.47
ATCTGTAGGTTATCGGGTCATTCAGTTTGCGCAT : 1.36
TCTAGTTGGTCACGGGGGTCACACACGACGGGTA : 9.37
CGAACTAGGTCACCAGGACAGAGAAGAGGTTGGA : -0.205

====

In this section, each of the sequences is paired with its reported PBM binding z-score.
system: PPARa:RXRa (NR concentration 270 nM, RXRa partner concentration 90 nM); assay: PBM binding z-score (relative to random genomic background probes); higher = stronger binding; sequences stand for … in GC…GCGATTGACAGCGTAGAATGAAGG
Measured quantity: PBM binding z-score

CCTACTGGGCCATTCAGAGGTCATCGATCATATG : 4.19
CAAACTAGGTCAAGAGGTCAAAGGCCGCTTCCCG : 6.45
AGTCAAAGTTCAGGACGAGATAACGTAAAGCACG : 3.28
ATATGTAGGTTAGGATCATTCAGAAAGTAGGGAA : 2.83
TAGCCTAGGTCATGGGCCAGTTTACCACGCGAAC : 4.37
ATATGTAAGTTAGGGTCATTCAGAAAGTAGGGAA : 4.91
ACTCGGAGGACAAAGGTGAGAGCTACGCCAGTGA : 2.81
CCTACTGGGCCACGAAAGGTCCTTGATTCAGTGA : 1.21
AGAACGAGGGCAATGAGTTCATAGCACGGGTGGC : 2.83
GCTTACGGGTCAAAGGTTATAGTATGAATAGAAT : 6.76
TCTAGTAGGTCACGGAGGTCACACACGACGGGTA : 6.41
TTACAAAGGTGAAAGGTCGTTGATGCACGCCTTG : 6.21
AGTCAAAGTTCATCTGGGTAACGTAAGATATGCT : 4.98
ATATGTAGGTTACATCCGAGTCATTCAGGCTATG : 3.1
CCTACTGGGCCAAGGTCATTGAGCAGTCAAAGCA : 4.19
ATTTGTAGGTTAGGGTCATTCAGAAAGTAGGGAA : 5.52
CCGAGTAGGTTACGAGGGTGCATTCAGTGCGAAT : 1.8
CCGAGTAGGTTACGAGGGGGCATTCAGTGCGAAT : 3.42
CCTTACGGGTCAAGGTAATAGCACGGGTGGTACG : 4.8
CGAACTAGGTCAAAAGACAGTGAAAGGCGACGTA : 4.46
CGAACTCGGTCAAAGGACAGTGAAAGGCGACGTA : 2.68
ATACCAAGGTCATCGTGAGGTCGTTGATACTAAC : 5.74
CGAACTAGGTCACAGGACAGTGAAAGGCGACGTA : 5.21
CGTCTAAGTTCAAGGTAACGTAACAGAAAGCAGC : 3.18
CCTACTGGGGCACGAAAGGTCATTGATTCAGTGA : 4.99
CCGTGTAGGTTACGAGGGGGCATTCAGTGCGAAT : 3.56
